Listing: MIC of selected compounds
Tested on: KPN UFR42
Assay: MIC, broth microdilution (CLSI), substance alone or ATB combined with compound at 4 or 8 μg/mL
Format: cell-based, K. pneumoniae
Settings: Klebsiella pneumoniae; substance alone; KPN UFR42; read-out: MIC
Numbers only; they are read as µg/mL.

Solved cases below.
{"compound": "O=C1N2CC(c3ncco3)=C[C@H](C2)N1OS(=O)(=O)[O-].[Na+] [Example 9]", "experimentalResult": 8}
{"compound": "O=C1N2CC(n3cccn3)=CC(C2)N1OS(=O)(=O)[O-].[Na+] (stereo not shown) [Example 11]", "experimentalResult": 8}

Q: I'd like to know its MIC. The compound in question is NC[C@@H]1C(c2ncco2)=C[C@@H]2CN1C(=O)N2OS(=O)(=O)[O-].O=C(O)C(F)(F)F.[Na+] [Example 5]
Result: 32
